Test system: SK-MEL-5
ASSAY TEXT: NCI tumour cell line growth inhibition, 48 h
Calls of active or inactive are those of the source. Cut-off read from the data, not from the text of the source: active = GI50 up to about 1.1 µM and inactive = higher.
Measured GI50, listed per entry.
EXPERIMENTAL READOUT: GI50

# COMPOUND, REPORTED VALUE
records = [
    ("COC(=O)c1ccc(NCC2=CC(=O)C=CC2=O)cc1", "18.5 µM (inactive)"),
    ("CCOC(=O)CN1C(=O)c2ccc(NC(=O)C(=O)O)cc2S1(=O)=O", "> 100 µM (inactive)"),
    ("COc1c(C)c2c(c(C)c1Cl)Oc1c(C=O)c(O)c(Cl)c(C)c1C(=O)O2", "95.7 µM (inactive)"),
    ("Cc1cc2c(c(=O)o1)C1=S(SC(c3ccccc3)=C1)S2 (stereo not drawn)", "47.4 µM (inactive)"),
    ("Cc1nn(C(=O)Cc2ccccc2)c2c1C(c1ccccc1[N+](=O)[O-])SC(=N)N2 (stereo not drawn)", "> 100 µM (inactive)"),
    ("CSc1s[s+]c(SC)c1[O-]", "90.6 µM (inactive)"),
    ("O=C1C(Cl)=C(NCCO)C(=O)c2c(O)ccc(O)c21", "1.41 µM (inactive)"),
    ("c1ccc(C2(c3cc4ccccc4[nH]3)OCCO2)cc1", "23.1 µM (inactive)"),
    ("Cc1cc(-c2[nH]c(C(=O)O)cc2I)on1", "> 100 µM (inactive)"),
    ("Oc1ccc(/C=C/c2ccc3cccc(O)c3n2)cc1O", "3.02 µM (inactive)"),
    ("Nc1nc(SCC(=O)c2ccccc2)nc2nc3c(c(-c4ccccc4)c12)CCCC3", "49.1 µM (inactive)"),
    ("[O-]c1c2cc(-[n+]3c(-c4ccccc4)cc(-c4ccccc4)cc3-c3ccccc3)cc1CO[C@@H](c1ccccc1)[C@H](c1ccccc1)OCc1cccc(n1)CO[C@@H](c1ccccc1)[C@H](c1ccccc1)OC2", "0.0424 µM (active)"),
    ("N#Cc1ccc(/N=C(/NCC(=O)O)Nc2cccc3ccccc23)cc1", "> 10 µM (inactive)"),
    ("CC(C)[C@@H](COC(C)(C)C)/N=C/N1CCc2c([nH]c3ccccc23)C1", "> 100 µM (inactive)"),
    ("O=C1C(NCCF)=C(Cl)C(=O)c2ncccc21", "0.145 µM (active)"),
    ("COC(=O)c1ccc(NCc2cc(O)ccc2O)cc1", "9.71 µM (inactive)"),
    ("NC1=CN2c3ccccc3N(CC(=O)N3CCOCC3)C2C=C1 (stereo not drawn)", "> 100 µM (inactive)"),
    ("CCCN(CCC)C(=O)c1c(Cl)c2cccnc2n2c(C)cnc12", "37.8 µM (inactive)"),
    ("NC(=O)NN=C1Cc2ccccc2C1", "> 100 µM (inactive)"),
    ("CN(CCCCN1CCCC1)CCCN(C)C(=O)Cc1ccc(Cl)c(Cl)c1", "9.98 µM (inactive)"),
    ("N=C1C(O)C2(I)c3ccccc3N3C(=N)C(O)C4c5ccccc5N1C4C32 (stereo not drawn)", "30.8 µM (inactive)"),
    ("CCCCN(CCCC)CC(C(C)=O)C(c1ccccc1)c1c(O)c2ccccc2oc1=O (stereo not drawn)", "> 100 µM (inactive)"),
    ("C[S+](C)C1(c2ccccc2)C(=O)c2ccccc2C1=O", "> 38.5 µM (inactive)"),
    ("CC1(C)C2CCC1(C)C(OC(=O)/C=C/C(=O)OC1CC3CCC1(C)C3(C)C)C2 (stereo not drawn)", "17.9 µM (inactive)"),
    ("COc1cc(O)c2c(=O)c3ccccc3n(C)c2c1", "4.66 µM (inactive)"),
    ("O=C(c1ccccc1)c1ccc2n[se]nc2c1", "11.8 µM (inactive)"),
    ("COc1cccc(NC(=O)C(=O)C(C(C)=O)c2nc3ccc(Cl)cc3nc2O)c1 (stereo not drawn)", "> 100 µM (inactive)"),
    ("Cc1ccc(CC(=O)Nc2ccc(NC(=O)/C=C/NC(=O)/C=C/c3ccc(-c4ccccc4)cc3)cc2C(=O)c2ccccc2)cc1", "2.09 µM (inactive)"),
]

----------
Test system: EKVX
ASSAY TEXT: NCI tumour cell line growth inhibition, 48 h
Calls of active or inactive are those of the source. No stated cut-off is given here; in the data, active = GI50 up to about 1.1 µM and inactive = higher.

# COMPOUND, TARGET OF ASSAY, GI50
data = [
    ("Cn1c(N)c(/N=N/c2ccc(S(N)(=O)=O)cc2)c(=O)n(C)c1=O", "EKVX", "> 100 µM (inactive)"),
    ("CN(Cc1ccccc1)Cn1ccnc1", "EKVX", "> 85.1 µM (inactive)"),
    ("CCCC(=O)OC1C(C(O)CO)OC2OC(C)(C)OC21 (stereo not given)", "EKVX", "> 100 µM (inactive)"),
    ("COc1cc(S(=O)(=O)Nc2nc(-c3ccc(/N=C/c4cccs4)cc3)cs2)ccc1Cl", "EKVX", "> 100 µM (inactive)"),
    ("O=C(Nc1ccc(Cl)cc1Cl)OC(Cn1cncn1)c1ccc(Cl)cc1Cl (stereo not given)", "EKVX", "16 µM (inactive)"),
]

----------
Tested on: K562
ASSAY TEXT: NCI tumour cell line growth inhibition, 48 h
Active and inactive are the calls of the source. Cut-off read from the data, not from the text of the source: active = GI50 up to about 1.1 µM and inactive = higher.
Outcome codes: active, inactive

# COMPOUND, ANSWER LABEL
rows = [
    ("O=C(Nn1cnn2c(=O)c3ccccc3nc2c1=O)c1ccccc1", "inactive"),
    ("CC(C)[C@@H](COC(C)(C)C)/N=C/N1CCc2c([nH]c3ccccc23)C1", "inactive"),
    ("COc1ccc(Nc2nc3cc(C(F)(F)F)ccc3nc2C(=O)O)cc1", "inactive"),
    ("CC(=O)NC1CCC(NC(=O)OC(C)(C)C)C(NC(=O)OC(C)(C)C)C1 (stereo not drawn)", "inactive"),
    ("CCOC1=NC(C(F)(F)F)(C(F)(F)F)N=C(N2CCCCC2)O1", "inactive"),
    ("CC(=O)C(=[N+]=[N-])C(=O)N(C)CCC#N", "inactive"),
    ("CC1(C)C2CCC1(C)C(OC(=O)/C=C/C(=O)OC1CC3CCC1(C)C3(C)C)C2 (stereo not drawn)", "inactive"),
    ("O=C1Nc2ccccc2C12CCCC2", "inactive"),
    ("BrCCC[P+](c1ccccc1)(c1ccccc1)c1ccccc1", "inactive"),
    ("C/C(=N\\Nc1nc2ccccc2o1)c1cc(C)ncn1", "active"),
    ("CSc1c(C(=O)Nc2ccc(C)cc2)c(N)n(N)c(=O)c1C#N", "inactive"),
    ("Cc1nc2c(O)c3c(c(O)c2nc1C)C1C=CC3CC1", "inactive"),
    ("N#CC(C#N)C(c1ccccc1)c1ccccc1", "inactive"),
]

----------
Tested on: SF-295
ASSAY TEXT: NCI tumour cell line growth inhibition, 48 h
Active and inactive are the calls of the source. No stated cut-off is given here; in the data, active = GI50 up to about 1.1 µM and inactive = higher.
Measured GI50, listed per entry.

# MOLECULE, GI50
records = [
    ("C=C[C@]1(C)CC(=O)C(C(C)C=O)[C@]12C(=O)Oc1cccc(C)c1C2=O (stereo partly specified)", "15.5 µM (inactive)"),
    ("CCc1nc(Cl)c(Cl)c(Cl)n1", "> 100 µM (inactive)"),
    ("CC(=O)c1cccc(N2COC(C)(C)c3nc4ccccc4n3C2)c1", "> 100 µM (inactive)"),
    ("COc1cc(S(=O)(=O)Nc2nc(-c3ccc(/N=C/c4cccs4)cc3)cs2)ccc1Cl", "> 100 µM (inactive)"),
    ("O=C1CCC2(CC1CC[S+]([O-])c1ccccc1)OCCO2 (stereo unspecified)", "> 100 µM (inactive)"),
    ("CC(=O)O[C@H]1CC[C@@]2(C)C(CC[C@]3(C)C2CC[C@]2(C)Oc4c(C)cc(O)cc4C[C@@H]23)C1(C)C (stereo partly specified)", "2.17 µM (inactive)"),
    ("O=C1C=CC(=O)c2c1c1c(c3c2C2c4ccccc4C3c3ccccc32)C2c3ccccc3C1c1ccccc12", "14.9 µM (inactive)"),
    ("COc1cc(Nc2nc3cc(C(F)(F)F)ccc3nc2C(=O)O)cc(OC)c1OC", "27.2 µM (inactive)"),
    ("N#CCc1ccc(/C(C#N)=C2/OC(=N)C(c3ccc(CC#N)cc3)C2=O)cc1 (stereo unspecified)", "> 100 µM (inactive)"),
    ("CC(=O)c1nc2ccccc2n1CC(=O)c1ccc(Cl)cc1", "13.4 µM (inactive)"),
    ("O=S(O)CCCSSc1ccccc1", "53.2 µM (inactive)"),
]

----------
Measured GI50, listed per entry.
Tested on: M19-MEL
ASSAY TEXT: NCI tumour cell line growth inhibition, 48 h
Active and inactive are the calls of the source. Cut-off read from the data, not from the text of the source: active = GI50 up to about 1.1 µM and inactive = higher.

# MOLECULE, GI50
records = [
    ("O=C(NC(=O)c1cn(CCN(CCO)C(=O)NCCCCCCNC(=O)N(CCO)CCn2cc(C(=O)NC(=O)OCc3ccccc3)c(=O)[nH]c2=O)c(=O)[nH]c1=O)OCc1ccccc1", "> 100 µM (inactive)"),
    ("O=c1[c-](-c2ccccc2)[se]c(-c2ccccc2)[n+]1-c1ccccc1", "7.59 µM (inactive)"),
    ("CCCCN(CCCC)CC(C(C)=O)C(c1ccccc1)c1c(O)c2ccccc2oc1=O (configuration not stated)", "> 100 µM (inactive)"),
    ("CC1=C(C(=O)Nc2ccccc2C)C(/C=C/c2ccccc2)C(C(=O)Nc2ccccc2C)=C(C)N1", "> 100 µM (inactive)"),
    ("CSc1nc(NC2OC(CO)C(O)C(O)C2O)c(N)c(=O)[nH]1 (configuration not stated)", "> 100 µM (inactive)"),
    ("N#CCc1ccc(/C(C#N)=C2/OC(=N)C(c3ccc(CC#N)cc3)C2=O)cc1 (configuration not stated)", "> 100 µM (inactive)"),
    ("CC(C)=C1CCC(CN2CCCC2)C1=O (configuration not stated)", "20.6 µM (inactive)"),
]
